Assay: chemical genetic growth profiling, strain panel (AID 1159580);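 note: tested at 20 µM; growth read once vehicle control cultures reached saturation at 30 °C; 1 = growth at the plate median or of vehicle wells; lower values mean less growth of the strain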
Settings: S. cerevisiae deletion strains, growth OD, locus YBR171W, strain sec66, hits give low values
About 2,000 (36%) of roughly 5,500 compounds were called active. Another 18% or so got no clear call; they are omitted. The list shows a part of the results.
measure: normalized growth
Answers are plain numbers.

Would you please look over these solved cases?
[
  {
    "compound": "Cc1ncc(CNC(=O)N(CCCl)N=O)c(N)n1",
    "normalized growth": 1.02
  },
  {
    "compound": "CC[C@@H]1C=C/C=C/C[C@H](C)[C@@H](O)[C@](C)(O)C(=O)[C@H](C)[C@@H](O)[C@H](C)C(=O)[C@H](C)[C@@H](O)[C@H](C)/C=C/C(=O)O[C@H]2[C@@H](C)[C@@H](CC1)O[C@@]1(CC[C@@H](C)[C@@H](C[C@H](C)O)O1)[C@@H]2C",
    "normalized growth": 1.01
  },
  {
    "compound": "CC(=O)Oc1cc(OC(C)=O)c2c(c1)O[C@H](c1ccc(OC(C)=O)c(OC(C)=O)c1)[C@H](OC(C)=O)C2",
    "normalized growth": 0.999
  },
  {
    "compound": "CCOC(=O)n1ccn(C)c1=S",
    "normalized growth": 0.98
  },
  {
    "compound": "CC(=O)O[C@H]1C[C@@H](OC(C)=O)C(C)(C)C2CC(=O)[C@]3(C)C(CC[C@@]4(C)[C@H](C(=O)O)OC(=O)C5OC543)[C@]21C (some centres not stated)",
    "normalized growth": 0.984
  }
]

Provide each entry's normalized growth from the list below.
1. c1ccc2c(c1)sc1ccccc12
2. COc1cc([C@@H]2c3cc4c(cc3C(OC3O[C@@H]5COC(C)O[C@H]5[C@H](O)[C@H]3O)C3COC(=O)[C@@H]32)OCO4)cc(OC)c1O (some centres not stated)

0.912
1.07

---

Kindly state normalized growth for each of the entries shown.
Experiment: chemical genetic growth profiling, strain panel (AID 1159580)
Settings: S. cerevisiae deletion strains, growth OD, locus YHR027C, strain rpn1, hits give low values
The whole screen tested about 5,500 compounds, of which about 2,000 (36%) were called active. Roughly 18% stayed inconclusive and do not appear here. Some of the results follow.
One number for each entry.

Would you please look over these solved cases?
[
  {
    "compound": "CC#CC1(O)CCC2C3CCC4=CC(=O)CCC4=C3C(c3ccc(N(C)C)cc3)CC21C (stereo not given)",
    "normalized growth": 1
  },
  {
    "compound": "Clc1ccc(C(c2ccc(Cl)cc2)C(Cl)(Cl)Cl)cc1",
    "normalized growth": 1
  },
  {
    "compound": "C#CCN(C)Cc1ccccc1",
    "normalized growth": 1.02
  }
]

Provide each entry's normalized growth from the list below.
1. CN1CC(=O)N=C1N
2. CC[C@]1(O)CC2CN(CCc3c([nH]c4ccccc34)[C@@](C(=O)OC)(c3cc4c(cc3OC)N(C)[C@H]3[C@@](O)(C(=O)OC)[C@H](OC(C)=O)[C@]5(CC)C=CCN6CC[C@]43[C@@H]65)C2)C1 (stereo not given in full)

[1.02, 0.957]

---

Test: chemical genetic growth profiling, strain panel (AID 1159580);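 note: tested at 20 µM; growth read once vehicle control cultures reached saturation at 30 °C; 1 = growth at the plate median or of vehicle wells; lower values mean less growth of the strain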
Settings: S. cerevisiae deletion strains, growth OD, locus YJL134W, strain LCB3, hits give low values
Out of some 5,500 compounds screened, about 2,000 (36%) were called active. Inconclusive results (about 18%) are left out. The list shows a part of the results.
Kindly state normalized growth for each of the entries shown.
Give bare numbers.

Would you please look over these solved cases?
[
  {
    "compound": "COc1ccc(-c2coc3cc(O)ccc3c2=O)c(OC)c1O",
    "valueMeasured": 0.983
  },
  {
    "compound": "C[C@@H]1O[C@@H](O[C@H]2[C@H](Oc3cc(O)c4c(=O)cc(-c5ccc(O)cc5)oc4c3)O[C@H](CO)[C@@H](O)[C@@H]2O)[C@H](O)[C@H](O)[C@H]1O",
    "valueMeasured": 0.992
  },
  {
    "compound": "COc1ccc(-c2coc3cc(OC)ccc3c2=O)cc1",
    "valueMeasured": 0.941
  },
  {
    "compound": "COc1ccc(-c2coc3cc(O)ccc3c2=O)cc1",
    "valueMeasured": 0.98
  }
]

Provide each entry's normalized growth from the list below.
1. COC(=O)c1cc(=O)c(O)c2c(O)c(O)ccc2c1
2. O=C(O)CCCc1ccccc1
3. CN1C2C[C@H](OC(=O)[C@H](CO)c3ccccc3)C[C@H]1[C@@H](O)C2
4. O=C(O)/C=C/c1ccc(O)c(O)c1

0.958
1.01
1.01
1.01

Provide each entry's normalized growth from the list below.
1. COc1cc([C@@H]2c3cc4c(cc3C(OC3O[C@@H]5COC(C)O[C@H]5[C@H](O)[C@H]3O)C3COC(=O)[C@@H]32)OCO4)cc(OC)c1O (some centres undefined)
2. C=CCc1ccc(OC(=O)c2ccccc2)c(OC)c1
3. NCCCS(=O)(=O)O
4. CC[C@@H](C(=O)C(C)[C@@H](O)[C@H](C)CCc1ccc(C)c(O)c1C(=O)O)C1OC(CC)(C2CC[C@](O)(CC)[C@H](C)O2)C[C@@H]1C (some centres undefined)
5. COc1ccc(C(=O)O)cc1OC
6. CCN1CCCC(OC(=O)C(c2ccccc2)c2ccccc2)C1 (centres undefined)
7. Cc1ccc(S(=O)(=O)NC(=O)NN2CCCCCC2)cc1
8. COc1ccc(CN(CCN(C)C)c2ccccn2)cc1

1. 0.998
2. 1
3. 0.985
4. 1.04
5. 0.995
6. 1.01
7. 0.995
8. 0.989

Provide each entry's normalized growth from the list below.
1. O=S(=O)(O)CCS
2. O=c1c(-c2ccc(O)cc2)coc2cc(O)ccc12
3. CCN(CC)C(=O)N1CCN(C)CC1
4. Nc1nc(=S)c2[nH]cnc2[nH]1
5. CN(C)CCN(Cc1cccs1)c1ccccn1
6. C=CCc1ccc(O)c(OC)c1
7. O=C(OCC(O)CO)c1ccccc1Nc1ccnc2cc(Cl)ccc12 (centres undefined)
8. COc1ccc(-c2coc3cc(O)ccc3c2=O)c(OC)c1

[1.01, 1.01, 1.01, 1, 1.01, 0.937, 0.993, 1.01]

---

Assay: chemical genetic growth profiling, strain panel (AID 1159580);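 note: tested at 20 µM; growth read once vehicle control cultures reached saturation at 30 °C; 1 = growth at the plate median or of vehicle wells; lower values mean less growth of the strain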
Conditions: S. cerevisiae deletion strains, growth OD, locus YAL013W, strain DEP1, hits give low values
The whole screen tested about 5,500 compounds, of which about 2,000 (36%) were called active. Roughly 18% stayed inconclusive and do not appear here. Some of the results follow.
Kindly state normalized growth for each of the entries shown.
One number for each entry.

Would you please look over these solved cases?
[
  {
    "molecule": "CCCCCCCCCCCCCCCCCCNC(=O)OCC(COP(=O)([O-])OCC[n+]1ccsc1)OC (centres undefined)",
    "normalized growth": 0.983
  },
  {
    "molecule": "C[C@H](Cc1ccccc1)Nc1ncnc2c1ncn2[C@@H]1O[C@H](CO)[C@H](O)C1O (some centres undefined)",
    "normalized growth": 0.995
  },
  {
    "molecule": "COc1cc2c(cc1OC)C(=O)c1ccc(OC)c(OC)c1OCC(=O)C2",
    "normalized growth": 1.01
  }
]

Provide each entry's normalized growth from the list below.
1. c1ccc(CCCN2CCN(CCOC(c3ccccc3)c3ccccc3)CC2)cc1
2. OCC(O)CN1CCN(c2ccccc2)CC1 (centres undefined)
3. COc1ccc(/C=C2\CC/C(=C\c3ccc(OC)c(OC)c3)C2=O)cc1OC

1. 0.977
2. 0.995
3. 0.988

Provide each entry's normalized growth from the list below.
1. N[C@H]1CONC1=O
2. C/C=C(\C)C(=O)O[C@H]1C[C@@H](OC(C)=O)[C@@]2(C(=O)OC)CO[C@@H]3C2[C@]12CO[C@](O)(C(=O)OC)[C@H]2[C@](C)(C12O[C@@]1(C)[C@H]1C[C@@H]2OC2OC=C[C@@]21O)[C@@H]3O (some centres undefined)
3. Clc1ccc(C(OCCN2CCCCC2)c2ccccc2)cc1 (centres undefined)

1.01
0.99
1

---

Kindly state normalized growth for each of the entries shown.
Assay: chemical genetic growth profiling, strain panel (AID 1159580);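 note: tested at 20 µM; growth read once vehicle control cultures reached saturation at 30 °C; 1 = growth at the plate median or of vehicle wells; lower values mean less growth of the strain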
Details: S. cerevisiae deletion strains, growth OD, locus YJR066W, strain TOR1 (second series), hits give low values
Screen size: about 5,500 compounds; about 2,000 (36%) were called active. Roughly 18% stayed inconclusive and do not appear here. Some of the results follow.

Would you please look over these solved cases?
[
  {
    "molecule": "Cc1c(C(=O)Sc2ccc(F)cc2F)sc2nc(C(F)(F)F)nn12",
    "measure": "normalized growth",
    "valueMeasured": "0.0917 (active)"
  },
  {
    "molecule": "Cc1cc(C)cc(Sc2ccc3nnc(-c4ccccc4)n3n2)c1",
    "measure": "normalized growth",
    "valueMeasured": "0.942 (inactive)"
  }
]

Provide each entry's normalized growth from the list below.
1. O=C(c1csc(-c2ccc(Cl)cc2)c1)N1CCCCC1
2. COc1ccc(C(CC(=O)c2ccccc2)Sc2ccccc2N)cc1OC (stereo unspecified)
3. N#C/C(=N/Nc1ccccc1)C(=O)c1ccccc1OC(F)(F)F
4. CC(C)(C)c1ccc(N/N=C(\C#N)C(N)=O)cc1

0.764 (inactive)
1 (inactive)
0.879 (inactive)
0.0973 (active)

Each recorded value in this set is attributed to PubChem BioAssay AID1159580.
